# test_summary: NCI Yeast Anticancer Drug Screen. Data for the cln2 rad14 strain (AID 165);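 note: 0% = growth equal to vehicle treated cultures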
# condition_details: S. cerevisiae cln2 rad14 strain, at 50.0 µM, active compounds read high
Compounds without any hit were thinned out: in the full panel of roughly 79,000, 15% have a hit.
quantity_measured: growth inhibition (%)
Answer in %, number only, no unit symbol.

Example cases with answers are listed next.
O=C1CC(=Nc2ccc([N+](=O)[O-])cc2)NN1c1c(Cl)cc(Cl)cc1Cl; 89.4
COc1cccc(NC(=S)NC2CC(C)CC(C)(C)C2)c1 (stereo unspecified); 86.2
CN(C)C(=S)N1C(=S)N(c2ccccc2)C(=Nc2ccccc2)C1=Nc1ccccc1; -18.3

Challenge: Report growth inhibition for `COc1ccc2ccc(=O)oc2c1CC=C(C)C` please.
Response given: -9.6

Challenge: # repeat for `CC(C)(C)OC(=O)N(CCCCNC(=O)OCc1ccccc1)CCCNC(=O)OCc1ccccc1`
Response given: -0.85
